study-target: UniProtKB Q04IN8
assay-text: Inhibition of the haemolytic activity of pneumolysin (sheep erythrocytes)
Assay type: cell-based
test-parameters: Table 1; pneumolysin at LD100, sheep erythrocytes, 37° C.; read-out: IC50
Could you please report measured pIC50 for the items listed next?
// pIC50 is dimensionless: -log10 of concentration (M)

In plain terms, COc1ccc(-n2c(C(=O)N(C)C)c(O)c(O)c2C(=O)N(C)C)cc1 [UL1-005] has a documented pIC50 of 6.70

Value of measured pIC50 for the entry CCOC(=O)c1c(O)c(O)c(C(=O)N(C)C)n1-c1ccc(OC)cc1 [UL1-012] : 6.70

---

Answer each item with its documented pIC50.
study-target: UniProt:Q04IN8
assay-text: Inhibition of the haemolytic activity of pneumolysin (sheep erythrocytes)
Format: cell-based
test-parameters: Table 2; pneumolysin at LD100, sheep erythrocytes, 37° C.; read-out: IC50
Bear in mind: pIC50 is minus log10 of a mol/L concentration; give just that figure.

Entry COc1ccc(-n2c(C(=O)N(C)C)c(O)c(O)c2C(=O)N(C)C)cc1 [UL1-005] ; pIC50 = 6.70

Please fill in: pIC50 reported for CCOC(=O)c1c(O)c(O)c(C(=O)N(C)C)n1-c1ccc(OC)cc1 [UL1-012] = 6.70

---

assay-text: Conversion of prodrug to parent active compound in mouse plasma (LC-MS/MS)
Type: in vitro ADME
test-parameters: 37° C., 10 μM start, 30 min
Where a name gives a salt, the structure may show the parent alone.
What [ ] (μM) Prodrug remaining, t30 min. was measured for each of the following?
Report as a plain number; the unit µM is understood.

[ ] (μM) Prodrug remaining, t30 min. reported for this molecule "COc1ccc(-n2c(C(=O)N(C)C)c(OC(=O)c3cccc(COP(=O)(O)O)c3)c(OC(=O)c3cccc(COP(=O)(O)O)c3)c2C(=O)N(C)C)cc1.[Na+].[Na+]" : 0.79

Per the records, this molecule ( COc1ccc(-n2c(C(=O)N(C)C)c(OC(=O)C(C)(C)C)c(OC(=O)C(C)(C)C)c2C(=O)N2CCN(C)CC2)cc1 [UL6-004, hydrochloride] ) has [ ] (μM) Prodrug remaining, t30 min. equal to 9.88

Entry "COc1ccc(-n2c(C(=O)N(C)C)c(OC(=O)C(C)C)c(OC(=O)C(C)C)c2C(=O)N2CCN(C)CC2)cc1.Cl" , [ ] (μM) Prodrug remaining, t30 min. reported as 0.00

// [ ] (μM) Prodrug remaining, t30 min. value for "CCOC(=O)c1c(OC(=O)c2ccc(COP(=O)([O-])O)cc2)c(OC(=O)c2ccc(COP(=O)([O-])O)cc2)c(C(=O)N(C)C)n1-c1ccc(OC)cc1.[Na+].[Na+]" : 1.70

---

study-target: pneumolysin (Streptococcus pneumoniae serotype 2, UniProt Q04IN8)
Sequence (Q04IN8 whole entry): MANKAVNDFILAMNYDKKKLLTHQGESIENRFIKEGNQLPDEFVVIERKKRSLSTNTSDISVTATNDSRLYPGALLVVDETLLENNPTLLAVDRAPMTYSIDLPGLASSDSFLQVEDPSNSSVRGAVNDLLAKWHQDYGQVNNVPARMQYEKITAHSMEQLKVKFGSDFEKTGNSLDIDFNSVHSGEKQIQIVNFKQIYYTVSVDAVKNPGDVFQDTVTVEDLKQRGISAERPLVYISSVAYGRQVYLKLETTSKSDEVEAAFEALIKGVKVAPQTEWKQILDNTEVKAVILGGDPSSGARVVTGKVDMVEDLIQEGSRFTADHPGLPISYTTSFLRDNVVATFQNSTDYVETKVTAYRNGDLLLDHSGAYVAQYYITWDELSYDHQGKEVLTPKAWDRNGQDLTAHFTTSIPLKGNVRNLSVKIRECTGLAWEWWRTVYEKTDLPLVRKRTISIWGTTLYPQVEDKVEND
assay-text: Inhibition of pneumolysin-induced lactate dehydrogenase (LDH) release from A549 human lung epithelial cells
Assay type: cell-based
pIC50: −log10 of the molar value.
value-kind: pIC50

Item: "COc1ccc(-n2c(C(=O)N(C)C)c(O)c(O)c2C(=O)N(C)C)cc1" | pIC50: > 6.31

---

For each entry below, report its pIC50 value.
study-target: UniProtKB Q04IN8
assay-text: Inhibition of the haemolytic activity of pneumolysin (sheep erythrocytes)
Format: cell-based
Where a name gives a salt, the structure may show the parent alone.
Please note pIC50 is a logarithmic value: minus log10 of concentration in mol/L. Answer with that number alone.

For COc1ccc(-n2c(C(=O)N(C)C)c(OC(=O)C(C)C)c(OC(=O)C(C)C)c2C(=O)N(C)C)cc1 [UL1-114] the molecule record lists pIC50 as 4.71

Sure, the documented pIC50 for COc1ccc(-n2c(C(=O)N(C)C)c(OC(=O)c3cccc(COP(=O)(O)O)c3)c(OC(=O)c3cccc(COP(=O)(O)O)c3)c2C(=O)N(C)C)cc1.[Na+].[Na+] [UL6-006] is 6.52

Entry under test: COc1ccc(-n2c(C(=O)N(C)C)c(O)c(O)c2C(=O)N2CCN(C)CC2)cc1 [UL1-027] . Its pIC50 was 6.70

// recorded pIC50 for CCOC(=O)c1c(OC(=O)c2ccc(COP(=O)([O-])O)cc2)c(OC(=O)c2ccc(COP(=O)([O-])O)cc2)c(C(=O)N(C)C)n1-c1ccc(OC)cc1.[Na+].[Na+] [UL6-008] : 5.72

Recorded result, COc1ccc(-n2c(C(=O)N(C)C)c(OC(=O)C(C)(C)C)c(OC(=O)C(C)(C)C)c2C(=O)N2CCN(C)CC2)cc1 [UL6-004, hydrochloride] , pIC50: 5.80

Short answer for COc1ccc(-n2c(C(=O)N(C)C)c(OC(=O)C(C)C)c(OC(=O)C(C)C)c2C(=O)N2CCN(C)CC2)cc1.Cl [UL6-002, hydrochloride] : pIC50 was 5.70

---

assay-text: Solubility testing in PBS or 0.9% saline
Type: physicochemical
test-parameters: aqueous buffer, thermodynamic from solid; PBS, pH 5-6
value-kind: solubility

For reference, reported solubility for "COc1ccc(-n2c(C(=O)N(C)C)c(OC(=O)c3cccc(COP(=O)(O)O)c3)c(OC(=O)c3cccc(COP(=O)(O)O)c3)c2C(=O)N(C)C)cc1.[Na+].[Na+]" stands at ≥ 50 mg/mL

---

assay-text: Conversion of prodrug to parent active compound in mouse plasma (LC-MS/MS)
Type: in vitro ADME
test-parameters: 37° C., 10 μM start, 120 min
Structures can show the parent of a compound that is named as a salt.
Record form. Attribute: [ ] (μM) Prodrug remaining, t120 min.. Fill in for each entry.
# output: bare number, implied unit µM

"CCOC(=O)c1c(OC(=O)c2ccc(COP(=O)([O-])O)cc2)c(OC(=O)c2ccc(COP(=O)([O-])O)cc2)c(C(=O)N(C)C)n1-c1ccc(OC)cc1.[Na+].[Na+]" has a reported [ ] (μM) Prodrug remaining, t120 min. of 0.09

Memo: "COc1ccc(-n2c(C(=O)N(C)C)c(OC(=O)C(C)C)c(OC(=O)C(C)C)c2C(=O)N2CCN(C)CC2)cc1.Cl" , reported [ ] (μM) Prodrug remaining, t120 min.: 0.00

Data point: "COc1ccc(-n2c(C(=O)N(C)C)c(OC(=O)c3cccc(COP(=O)(O)O)c3)c(OC(=O)c3cccc(COP(=O)(O)O)c3)c2C(=O)N(C)C)cc1.[Na+].[Na+]" ; [ ] (μM) Prodrug remaining, t120 min. = 0.04

Entry COc1ccc(-n2c(C(=O)N(C)C)c(OC(=O)C(C)(C)C)c(OC(=O)C(C)(C)C)c2C(=O)N2CCN(C)CC2)cc1 [UL6-004, hydrochloride] , [ ] (μM) Prodrug remaining, t120 min. reported as 9.63

---

assay-text: Chemical stability assessment in PBS at 37.5° C. (HPLC)
Type: physicochemical
test-parameters: buffer, pH 6.2, read-out: Chemical stability at pH 6.2-7.2 (t1/2) (converted)
value-kind: half-life (h)
Write down the numeric answer in h and omit the unit.

Recorded result, CCOC(=O)c1c(O)c(O)c(C(=O)N(C)C)n1-c1ccc(OC)cc1 [UL1-012] , half-life: 1.02

Record summary for COc1ccc(-n2c(C(=O)N(C)C)c(OC(=O)c3cccc(COP(=O)(O)O)c3)c(OC(=O)c3cccc(COP(=O)(O)O)c3)c2C(=O)N(C)C)cc1.[Na+].[Na+] [UL6-006] : reported half-life = 29.5

Record CCOC(=O)c1c(OC(=O)c2ccc(COP(=O)([O-])O)cc2)c(OC(=O)c2ccc(COP(=O)([O-])O)cc2)c(C(=O)N(C)C)n1-c1ccc(OC)cc1.[Na+].[Na+] [UL6-008] , field half-life: 144

---

assay-text: Conversion of prodrug to parent active compound in mouse plasma (LC-MS/MS)
Format: in vitro ADME
test-parameters: 37° C., 10 μM start, 60 min
Counter-ions that a name gives are not always drawn.
value-kind: [ ] (μM) Prodrug remaining, t60 min. (µM)
Report only the number, with the unit µM understood.

Recorded [ ] (μM) Prodrug remaining, t60 min. (molecule COc1ccc(-n2c(C(=O)N(C)C)c(OC(=O)c3cccc(COP(=O)(O)O)c3)c(OC(=O)c3cccc(COP(=O)(O)O)c3)c2C(=O)N(C)C)cc1.[Na+].[Na+] [UL6-006] ): 0.10

The recorded [ ] (μM) Prodrug remaining, t60 min. for COc1ccc(-n2c(C(=O)N(C)C)c(OC(=O)C(C)(C)C)c(OC(=O)C(C)(C)C)c2C(=O)N2CCN(C)CC2)cc1 [UL6-004, hydrochloride] is 9.80

Noted for COc1ccc(-n2c(C(=O)N(C)C)c(OC(=O)C(C)C)c(OC(=O)C(C)C)c2C(=O)N2CCN(C)CC2)cc1.Cl [UL6-002] : its [ ] (μM) Prodrug remaining, t60 min. reads 0.02

For record CCOC(=O)c1c(OC(=O)c2ccc(COP(=O)([O-])O)cc2)c(OC(=O)c2ccc(COP(=O)([O-])O)cc2)c(C(=O)N(C)C)n1-c1ccc(OC)cc1.[Na+].[Na+] [UL6-008] the listed [ ] (μM) Prodrug remaining, t60 min. is 0.47

All figures here come from patent US20160130224A1.
